# Test system: frog (Rana pipiens) skin
# Assay type: cell-based
# condition_description: in vitro; alpha-MSH = 1.0
Non-standard residues stand in square brackets, D forms with d. Residues, ends and D or L forms follow the SMILES beside them. Nle = CCCC[C@H](N)C(=O)O
readout_label: Relative Potency Frog

Query block: Form field - read-out: Relative Potency Frog; system: frog (Rana pipiens) skin; submitted item: CCCC[C@H](NC(C)=O)C(=O)N[C@@H](CCC(=O)O)C(=O)N[C@@H](Cc1c[nH]cn1)C(=O)N[C@@H](Cc1ccccc1)C(=O)N[C@@H](CCCNC(=N)N)C(=O)N[C@@H](Cc1c[nH]c2ccccc12)C(N)=O [Ac-[Nle^4]-alpha-MSH4-9 -NH2] (Ac-[Nle]EHFRW-NH2)
Result block: 0.0007

Query block: Same thing, different molecule: CCCC[C@H](NC(C)=O)C(=O)N[C@@H](CCC(=O)O)C(=O)N[C@@H](Cc1c[nH]cn1)C(=O)N[C@H](Cc1ccccc1)C(=O)N[C@@H](CCCNC(=N)N)C(=O)N[C@H](Cc1c[nH]c2ccccc12)C(N)=O (Ac-[Nle]EH[dF]R[dW]-NH2)
Result block: 0.03

Query block: Same thing, different molecule: CC(=O)N[C@@H](Cc1ccc(O)cc1)C(=O)N[C@@H](CCC(=O)O)C(=O)N[C@@H](Cc1c[nH]cn1)C(=O)N[C@H](Cc1ccccc1)C(=O)N[C@@H](CCCNC(=N)N)C(=O)N[C@@H](Cc1c[nH]c2ccccc12)C(=O)NCC(=O)N[C@@H](CCCCN)C(N)=O [Ac-[Tyr^4 -D-Phe^7]-alpha-MSH4-11 -NH2] (Ac-YEH[dF]RWGK-NH2)
Result block: 0.01

Turning now to a further molecule:
Query block: Form field - read-out: Relative Potency Frog; system: frog (Rana pipiens) skin; submitted item: CC(=O)N[C@@H](CCC(=O)O)C(=O)N[C@@H](Cc1c[nH]cn1)C(=O)N[C@H](Cc1ccccc1)C(=O)N[C@@H](CCCNC(=N)N)C(=O)N[C@@H](Cc1c[nH]c2ccccc12)C(=O)NCC(=O)N[C@@H](CCCCN)C(N)=O [Ac-[D-Phe^7]-alpha-MSH5-11 -NH2] (Ac-EH[dF]RWGK-NH2)
Result block: 0.01

---

# Test system: frog (Rana pipiens) skin
# Format: cell-based
# condition_description: in vitro; alpha-MSH = 1.0
Non-standard residues stand in square brackets, D forms with d. Residues, ends and D or L forms follow the SMILES beside them. dPhg = N[C@@H](C(=O)O)c1ccccc1; Nle = CCCC[C@H](N)C(=O)O
Classify as follows. Reported Relative Potency Frog greater than or equal to 0.002: satisfied. Reported Relative Potency Frog below: not satisfied.

Observe how each entry below is paired with its result.
Query block: Hi, just wondering whether CCCC[C@H](NC(C)=O)C(=O)N[C@@H](CCC(=O)O)C(=O)N[C@@H](Cc1ccccc1)C(=O)N[C@H](Cc1ccccc1)C(=O)N[C@@H](CCCNC(=N)N)C(=O)N[C@@H](Cc1c[nH]c2ccccc12)C(=O)NCC(=O)N[C@@H](CCCCN)C(N)=O (Ac-[Nle]EF[dF]RWGK-NH2) shows Relative Potency Frog of 0.002 or higher.
Result block: satisfied

Query block: Same thing, different compound: CCCC[C@H](NC(C)=O)C(=O)N[C@@H](CCC(=O)O)C(=O)N[C@@H](Cc1c[nH]cn1)C(=O)N[C@@H](Cc1ccccc1)C(=O)N[C@H](CCCNC(=N)N)C(=O)N[C@@H](Cc1c[nH]c2ccccc12)C(=O)NCC(=O)N[C@@H](CCCCN)C(N)=O [Ac-[Nle^4 -D-Arg^8]-alpha-MSH4-11 -NH2] (Ac-[Nle]EHF[dR]WGK-NH2)
Result block: not satisfied

Query block: Same thing, different compound: CCCC[C@H](NC(C)=O)C(=O)N[C@@H](CCC(=O)O)C(=O)N[C@@H](Cc1c[nH]cn1)C(=O)N[C@H](C)C(=O)N[C@@H](CCCNC(=N)N)C(=O)N[C@@H](Cc1c[nH]c2ccccc12)C(=O)NCC(=O)N[C@@H](CCCCN)C(N)=O [Ac-[Nle^4 -D-Ala^7]-alpha-MSH4-11 -NH2] (Ac-[Nle]EH[dA]RWGK-NH2)
Result block: not satisfied

Query block: Same thing, different compound: CCCC[C@H](NC(C)=O)C(=O)N[C@@H](CCC(=O)O)C(=O)N[C@@H](Cc1c[nH]cn1)C(=O)N[C@H](Cc1ccccc1)C(=O)N[C@@H](CCCNC(=N)N)C(=O)N[C@@H](Cc1ccccc1)C(=O)NCC(=O)N[C@@H](CCCCN)C(N)=O (Ac-[Nle]EH[dF]RFGK-NH2)
Result block: satisfied

Query block: Same thing, different compound: CCCC[C@H](NC(C)=O)C(=O)N[C@@H](CCC(=O)O)C(=O)N[C@@H](Cc1c[nH]cn1)C(=O)N[C@H](Cc1ccccc1)C(=O)N[C@@H](CCCNC(=N)N)C(=O)N[C@@H](Cc1c[nH]c2ccccc12)C(=O)NCC(N)=O [Ac-[Nle^4 -D-Phe^7]-alpha-MSH4-10 -NH2]
Result block: satisfied

Query block: Same thing, different compound: CCCC[C@H](NC(C)=O)C(=O)N[C@@H](CCC(=O)O)C(=O)N[C@@H](Cc1c[nH]cn1)C(=O)N[C@@H](Cc1ccccc1)C(=O)N[C@@H](CCCNC(=N)N)C(=O)N[C@@H](Cc1c[nH]c2ccccc12)C(=O)NCC(=O)N[C@@H](CCCCN)C(N)=O [Ac-[Nle^4 ]-alpha-MSH4-11 -NH2] (Ac-[Nle]EHFRWGK-NH2)
Result block: not satisfied

New cases:
Query block: Hi, just wondering whether CCCC[C@H](NC(C)=O)C(=O)N[C@@H](CCC(=O)O)C(=O)N[C@@H](Cc1c[nH]cn1)C(=O)N[C@@H](C(=O)N[C@@H](CCCNC(=N)N)C(=O)N[C@@H](Cc1c[nH]c2ccccc12)C(=O)NCC(=O)N[C@@H](CCCCN)C(N)=O)c1ccccc1 [Ac-[Nle^4 -D-Plg^7]-alpha-MSH4-11 -NH2] (Ac-[Nle]EH[dPhg]RWGK-NH2) shows Relative Potency Frog of 0.002 or higher.
Result block: not satisfied

---

# System: lizard (Anolis caroliniensis) skin
# assay_info: in vitro lizard skin bioassay, melanosome dispersion
# Type: cell-based
# condition_description: alpha-MSH = 1.0
Non-standard residues stand in square brackets, D forms with d. Residues, ends and D or L forms follow the SMILES beside them. dPhg = N[C@@H](C(=O)O)c1ccccc1; Nle = CCCC[C@H](N)C(=O)O
Let's look at some compounds and their measured Relative Potency Lizard.

Some compounds with recorded Relative Potency Lizard:
Query block: Form field - read-out: Relative Potency Lizard; system: lizard (Anolis caroliniensis) skin; submitted item: CCCC[C@H](NC(C)=O)C(=O)N[C@@H](CCC(=O)O)C(=O)N[C@@H](Cc1c[nH]cn1)C(=O)N[C@H](Cc1ccccc1)C(=O)N[C@@H](CCCNC(=N)N)C(=O)N[C@H](Cc1c[nH]c2ccccc12)C(N)=O (Ac-[Nle]EH[dF]R[dW]-NH2)
Result block: 3.8

Query block: Same thing, different compound: CCCC[C@H](NC(C)=O)C(=O)N[C@@H](CCC(=O)O)C(=O)N[C@@H](Cc1c[nH]cn1)C(=O)N[C@H](C)C(=O)N[C@@H](CCCNC(=N)N)C(=O)N[C@@H](Cc1c[nH]c2ccccc12)C(=O)NCC(=O)N[C@@H](CCCCN)C(N)=O [Ac-[Nle^4 -D-Ala^7]-alpha-MSH4-11 -NH2] (Ac-[Nle]EH[dA]RWGK-NH2)
Result block: 0.020

Query block: Same thing, different compound: CCCC[C@H](NC(C)=O)C(=O)N[C@@H](CCC(=O)O)C(=O)N[C@@H](Cc1c[nH]cn1)C(=O)N[C@@H](Cc1ccccc1)C(=O)N[C@H](CCCNC(=N)N)C(=O)N[C@@H](Cc1c[nH]c2ccccc12)C(=O)NCC(=O)N[C@@H](CCCCN)C(N)=O [Ac-[Nle^4 -D-Arg^8]-alpha-MSH4-11 -NH2] (Ac-[Nle]EHF[dR]WGK-NH2)
Result block: 0.0022

New cases:
Query block: Form field - read-out: Relative Potency Lizard; system: lizard (Anolis caroliniensis) skin; submitted item: CCCC[C@H](NC(C)=O)C(=O)N[C@@H](CCC(=O)O)C(=O)N[C@@H](Cc1c[nH]cn1)C(=O)N[C@@H](C(=O)N[C@@H](CCCNC(=N)N)C(=O)N[C@@H](Cc1c[nH]c2ccccc12)C(=O)NCC(=O)N[C@@H](CCCCN)C(N)=O)c1ccccc1 [Ac-[Nle^4 -D-Plg^7]-alpha-MSH4-11 -NH2] (Ac-[Nle]EH[dPhg]RWGK-NH2)
Result block: 0.0005

Query block: Same thing, different compound: CCCC[C@H](NC(C)=O)C(=O)N[C@@H](CCC(=O)O)C(=O)N[C@@H](Cc1c[nH]cn1)C(=O)N[C@@H](Cc1ccccc1)C(=O)N[C@@H](CCCNC(=N)N)C(=O)N[C@@H](Cc1c[nH]c2ccccc12)C(N)=O [Ac-[Nle^4]-alpha-MSH4-9 -NH2] (Ac-[Nle]EHFRW-NH2)
Result block: 0.18

Query block: Same thing, different compound: CCCC[C@H](NC(C)=O)C(=O)N[C@@H](CCC(=O)O)C(=O)N[C@@H](Cc1c[nH]cn1)C(=O)N[C@H](Cc1ccc(O)cc1)C(=O)N[C@@H](CCCNC(=N)N)C(=O)N[C@@H](Cc1c[nH]c2ccccc12)C(=O)NCC(=O)N[C@@H](CCCCN)C(N)=O [Ac-[Nle^4 -D-Tyr^7]-alpha-MSH4-11 -NH2] (Ac-[Nle]EH[dY]RWGK-NH2)
Result block: 1.0

Query block: Same thing, different compound: CCCC[C@H](NC(C)=O)C(=O)N[C@@H](CCC(=O)O)C(=O)N[C@@H](Cc1c[nH]cn1)C(=O)N[C@@H](Cc1ccc(O)cc1)C(=O)N[C@@H](CCCNC(=N)N)C(=O)N[C@@H](Cc1c[nH]c2ccccc12)C(=O)NCC(=O)N[C@@H](CCCCN)C(N)=O [Ac-[Nle^4 -Tyr^7]-alpha-MSH4-11 -NH2] (Ac-[Nle]EHYRWGK-NH2)
Result block: 0.0090
